system: Trametes versicolor laccase; assay: Laccase inhibitor kinetics: rate of ABTS^−2 oxidation at varied inhibitor and substrate concentrations; type: biochemical; conditions: plots of reciprocal rate vs inhibitor concentration, FIG. 20; read-out: Kd (dissociation constant of the inhibitor, -Ki intersection)
endpoint: Kd (µM)

> print(dat)
                 molecule  result.units  reported.value
1  Oc1c(O)c(F)c(F)c(F)c1F            µM             2.5

Hello, the source for this data is patent US7635423B2, in case you need it.
